# System: genetically hypertensive rats
# MEASUREMENT NOTES: Arterial pressure and heart rate per os in genetically hypertensive rats (SHR)
# Type: in vivo, rat (genetically hypertensive
# MEASUREMENT PARAMETERS: SHR rat, per os; > = no increase of the heart rate at the maximal tested dose
MEASURED PROPERTY: HR DE25 (ED25, dose giving an increase of the heart rate of 25%)

## Input Supply reported HR DE25 (ED25, dose giving an increase of the heart rate of 25%) belonging to this compound: CC(CCc1ccccc1)NCC(O)c1ccc(O)c(C(N)=O)c1 (centres unmarked) [Labetalol, reference compound]
## Output > 100 mg/kg/os

## Input Supply reported HR DE25 (ED25, dose giving an increase of the heart rate of 25%) belonging to this compound: CC(C)=NNc1ccc(OCC(O)CNC(C)C)nn1.Cl.Cl (centres unmarked)
## Output > 100 mg/kg/os

## Input Supply reported HR DE25 (ED25, dose giving an increase of the heart rate of 25%) belonging to this compound: COc1ccc(CCNCC(O)COc2ccc(NN=C(C)C)nn2)cc1OC.Cl.Cl (centres unmarked)
## Output > 60 mg/kg/os

## Input Supply reported HR DE25 (ED25, dose giving an increase of the heart rate of 25%) belonging to this compound: CCC(C)NCC(O)COc1ccc(NN=C(C)C)nn1.Cl.Cl (centres unmarked)
## Output > 50 mg/kg/os

## Input Supply reported HR DE25 (ED25, dose giving an increase of the heart rate of 25%) belonging to this compound: CC(C)NCC(O)COc1cccc2ccccc12 (centres unmarked) [Propanolol, reference compound]
## Output > 100 mg/kg/os

====

Assign LD50 to each entry below.
# MEASUREMENT NOTES: in vivo
# MEASUREMENT PARAMETERS: mouse, ip
Where a name gives a salt, the structure may show the parent alone.
Please state the figure in mg/kg; there is no need to write the unit.

## Input Supply reported LD50 belonging to this molecule: CC(C)=NNc1ccc(OCC(O)CNC(C)C)nn1.Cl.Cl (centres unmarked)
## Output 500

## Input Supply reported LD50 belonging to this molecule: CCC(C)NCC(O)COc1ccc(NN=C(C)C)nn1.Cl.Cl (centres unmarked)
## Output 300

## Input Supply reported LD50 belonging to this molecule: CC(C)=NNc1ccc(OCC(O)CNC(C)CCc2ccccc2)nn1.Cl.Cl (centres unmarked)
## Output 200

## Input Supply reported LD50 belonging to this molecule: COc1ccc(CCNCC(O)COc2ccc(NN=C(C)C)nn2)cc1OC.Cl.Cl (centres unmarked)
## Output 300

## Input Supply reported LD50 belonging to this molecule: CC(C)=NNc1ccc(OCC(O)CNC(C)(C)C)nn1 (centres unmarked) [dihydrochloride]
## Output 500

====

# Tested on: genetically hypertensive rats
# MEASUREMENT NOTES: Arterial pressure and heart rate per os in genetically hypertensive rats (SHR)
# Format: in vivo, rat (genetically hypertensive
# MEASUREMENT PARAMETERS: SHR rat, per os; > = no increase of the heart rate at the maximal tested dose
Structures can show the parent of a compound that is named as a salt.
Assign HR DE25 (ED25, dose giving an increase of the heart rate of 25%) to each entry below.

## Input Supply reported HR DE25 (ED25, dose giving an increase of the heart rate of 25%) belonging to this compound: CC(C)=NNc1ccc(OCC(O)CNC(C)CCc2ccccc2)nn1.Cl.Cl (stereo not drawn)
## Output > 40 mg/kg/os

## Input Supply reported HR DE25 (ED25, dose giving an increase of the heart rate of 25%) belonging to this compound: CC(C)=NNc1ccc(OCC(O)CNC(C)(C)C)nn1 (stereo not drawn) [dihydrochloride]
## Output > 100 mg/kg/os

## Input Supply reported HR DE25 (ED25, dose giving an increase of the heart rate of 25%) belonging to this compound: NNc1nncc2ccccc12 [Hydralazine, reference compound]
## Output 6.0 mg/kg/os

Every entry's value here was drawn from patent US4324788A.
